# System Tested: Acetylcholine receptor subunit alpha (Torpedo californica) (UniProt P02710)
# Sequence (P02710 whole entry): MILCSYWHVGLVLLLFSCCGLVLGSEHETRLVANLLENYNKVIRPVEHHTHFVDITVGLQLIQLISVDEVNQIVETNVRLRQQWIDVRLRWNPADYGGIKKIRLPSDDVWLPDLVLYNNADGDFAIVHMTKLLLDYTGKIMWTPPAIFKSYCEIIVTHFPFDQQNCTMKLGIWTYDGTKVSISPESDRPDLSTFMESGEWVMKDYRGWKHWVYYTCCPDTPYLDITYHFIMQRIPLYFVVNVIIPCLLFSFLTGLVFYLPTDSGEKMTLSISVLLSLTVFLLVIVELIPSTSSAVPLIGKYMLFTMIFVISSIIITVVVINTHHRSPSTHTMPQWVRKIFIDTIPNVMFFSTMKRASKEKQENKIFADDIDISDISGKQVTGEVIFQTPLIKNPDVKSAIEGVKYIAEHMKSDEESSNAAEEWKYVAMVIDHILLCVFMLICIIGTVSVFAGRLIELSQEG
# Protocol Summary: Displacement of [3H]alpha-BGT from nAChR in Torpedo nobiliana electric organs membranes at 1000 uM by scintillation counting method
# Type: tissue-based
# Test Conditions: Electric organ
Quantity Kind: inhibition (%)
# unit: % | format: bare number

Ask: What measured inhibition goes with CNC1(C)C2CCC(C2)C1(C)C (stereo not given) ?
Reply: 0

Ask: What measured inhibition goes with `CN(C)CCCN1c2ccccc2Sc2ccc(Cl)cc21` ?
Reply: 7.15

Ask: What measured inhibition goes with `CN1[C@@H](CC(=O)c2ccccc2)CCC[C@H]1C[C@H](O)c1ccccc1` ?
Reply: 0

Ask: What measured inhibition goes with CNC1(c2ccccc2Cl)CCCCC1=O (stereo not given) ?
Reply: 0.1

Ask: What measured inhibition goes with `c1ccc(C2(N3CCCCC3)CCCCC2)cc1` ?
Reply: 3.2

====

# Protocol Summary: Displacement of [3H]alpha-BGT from nAChR in Torpedo nobiliana electric organs membranes by scintillation counting method
hey, just use Criterion met if measured IC50 is less than 1000 µM, otherwise Criterion not met

Ask: Could you please tell me whether IC50 recorded for `O=[N+]([O-])C=C1NCCCS1` is less than 1000 µM?
Reply: Criterion not met

Ask: Could you please tell me whether IC50 recorded for `CN1CCC[C@H]1c1cccnc1` is less than 1000 µM?
Reply: Criterion met

Ask: Could you please tell me whether IC50 recorded for `c1cncc([C@@H]2CCCCN2)c1` is less than 1000 µM?
Reply: Criterion met

Ask: Could you please tell me whether IC50 recorded for `O=[N+]([O-])/N=C1\NCCN1Cc1ccc(Cl)nc1` is less than 1000 µM?
Reply: Criterion not met

Ask: Could you please tell me whether IC50 recorded for `C[N+](C)(C)CCOC(N)=O` is less than 1000 µM?
Reply: Criterion met

====

Please respond with reported Activity for every item in the list.
# System Tested: Acetylcholine receptor subunit alpha (Torpedo californica)
# Protocol Summary: Displacement of [3H]PCP from nAChR in Torpedo nobiliana electric organs membranes assessed as [3H]PCP binding level at 300 uM by scintillation counting method relative to untreated control
# Format: tissue-based
# Test Conditions: Electric organ
Include the unit after the number when you answer.

Ask: Form: Entry = `CSCCN1CCN/C1=C\[N+](=O)[O-]` | System = Acetylcholine receptor subunit alpha (Torpedo californica) | Activity = ____
Reply: 181%

Ask: Form: Entry = `O=[N+]([O-])/N=C1\NCCN1Cc1ccc(Cl)nc1` | System = Acetylcholine receptor subunit alpha (Torpedo californica) | Activity = ____
Reply: 287%

Ask: Form: Entry = `O=[N+]([O-])/C=C1\NCCN1Cc1ccc(Cl)nc1` | System = Acetylcholine receptor subunit alpha (Torpedo californica) | Activity = ____
Reply: 461%

Ask: Form: Entry = `C/C(=N\C#N)N(C)Cc1ccc(Cl)nc1` | System = Acetylcholine receptor subunit alpha (Torpedo californica) | Activity = ____
Reply: 221%

====

# System Tested: Acetylcholine receptor subunit alpha (Torpedo californica) (UniProt P02710)
# Protocol Summary: Displacement of [3H]PCP from nAChR in Torpedo nobiliana electric organs membranes assessed as [3H]PCP binding level at 300 uM in presence of 100 uM carbachol by scintillation counting method relative to untreated control
# Format: tissue-based
# Test Conditions: Electric organ
Quantity Kind: Activity (%)
# unit: % | format: bare number

Ask: Form: Entry = `O=[N+]([O-])/C=C1\NCCN1Cc1ccc(Cl)nc1` | System = Acetylcholine receptor subunit alpha (Torpedo californica) (UniProt P02710) | Activity = ____
Reply: 94.6

Ask: Form: Entry = `O=[N+]([O-])/N=C1\NCCN1Cc1ccc(Cl)nc1` | System = Acetylcholine receptor subunit alpha (Torpedo californica) (UniProt P02710) | Activity = ____
Reply: 92.4

Ask: Form: Entry = `CSCCN1CCN/C1=C\[N+](=O)[O-]` | System = Acetylcholine receptor subunit alpha (Torpedo californica) (UniProt P02710) | Activity = ____
Reply: 830

Ask: Form: Entry = `C/C(=N\C#N)N(C)Cc1ccc(Cl)nc1` | System = Acetylcholine receptor subunit alpha (Torpedo californica) (UniProt P02710) | Activity = ____
Reply: 93.3
